# Test system: SR leukemia
# ASSAY_OVERVIEW: NCI tumour cell line growth inhibition, 48 h
PROPERTY: TGI (µM)
Respond with the bare value in µM.

Request: # returns recorded TGI (system: SR leukemia) for CC(C)C1C(=O)N2CCCC2C2(O)OC(NC(=O)C3C=C4c5cccc6[nH]cc(c56)CC4N(C)C3)(C(C)C)C(=O)N12 (stereo not drawn)
Result: 68.3

Request: Now consider CCC[CH2][Sn]1([CH2]CCC)[O]C(c2ccccn2)S(=O)(=O)[O]1 (stereo not drawn) .
Result: 6.62

Request: Now consider C[C@H](c1ccc(Cl)cc1N)N1C(=O)c2cc(I)ccc2N(CCCN2CCN(C)CC2)C(=O)[C@@H]1c1ccc(Cl)cc1 .
Result: 2.6

Request: Now consider CC(=O)N1NC(c2ccccc2)=CC(=O)/C1=C/C(=O)c1ccccc1 .
Result: 57.8
